// provenance: patent US8901072B2

test system: S. aureus ATCC 13709; test: In vitro antibacterial susceptibility (MIC, broth microdilution); format: cell-based; details: cation-adjusted Mueller-Hinton broth, 37° C., 18 h
# strict inequality: MIC against S. aureus ATCC 13709, CAMHB < 2 mg/L yields y, everything else yields n

{"compound": "CC(C)CC(C(=O)NC1C(=O)NC(CC(N)=O)C(=O)NC2C(=O)NC3C(=O)NC(C(=O)NC(C(=O)O)c4cc(O)cc(O)c4-c4cc3ccc4O)C(OC3CC(C)(N)C(O)C(C)O3)c3ccc(c(Cl)c3)Oc3cc2cc(c3OC2OC(CO)C(O)C(O)C2OC2CC(C)(NCc3ccc(-c4ccc(Cl)cc4)cc3)C(O)C(C)O2)Oc2ccc(cc2Cl)C1O)N(C)C(=O)CNCCCNCCCCNCCCN (centres unmarked) [Compound 36]", "assaySystem": "S. aureus ATCC 13709", "discreteLabel": "y"}
{"compound": "CC(C)CC(C(=O)NC1C(=O)NC(CC(N)=O)C(=O)NC2C(=O)NC3C(=O)NC(C(=O)NC(C(=O)O)c4cc(O)cc(O)c4-c4cc3ccc4O)C(OC3CC(C)(NC(=O)OCOC(=O)C(N)CCCCN)C(O)C(C)O3)c3ccc(c(Cl)c3)Oc3cc2cc(c3OC2OC(CO)C(O)C(O)C2OC2CC(C)(NCc3ccc(-c4ccc(Cl)cc4)cc3)C(O)C(C)O2)Oc2ccc(cc2Cl)C1O)N(C)C(=O)OCOC(=O)C(N)CCCCN (centres unmarked) [Compound 46]", "assaySystem": "S. aureus ATCC 13709", "discreteLabel": "y"}
{"compound": "CC(C)CC(C(=O)NC1C(=O)NC(CC(N)=O)C(=O)NC2C(=O)NC3C(=O)NC(C(=O)NC(C(=O)O)c4cc(O)cc(O)c4-c4cc3ccc4O)C(OC3CC(C)(N)C(O)C(C)O3)c3ccc(c(Cl)c3)Oc3cc2cc(c3OC2OC(CO)C(O)C(O)C2OC2CC(C)(NCc3ccc(-c4ccc(Cl)cc4)cc3)C(O)C(C)O2)Oc2ccc(cc2Cl)C1O)N(C)C(=O)OCOC(=O)CCP(=O)(O)O (centres unmarked) [Compound 84]", "assaySystem": "S. aureus ATCC 13709", "discreteLabel": "y"}
{"compound": "CC(C)CC(C(=O)NC1C(=O)NC(CC(N)=O)C(=O)NC2C(=O)NC3C(=O)NC(C(=O)NC(C(=O)O)c4cc(O)cc(O)c4-c4cc3ccc4O)C(OC3CC(C)(N)C(O)C(C)O3)c3ccc(c(Cl)c3)Oc3cc2cc(c3OC2OC(CO)C(O)C(O)C2OC2CC(C)(NCc3ccc(-c4ccc(Cl)cc4)cc3)C(O)C(C)O2)Oc2ccc(cc2Cl)C1O)N(C)C(=O)OCOC(=O)CCC(=O)NC(CCC(=O)O)(CCC(=O)O)CCC(=O)O (centres unmarked) [Compound 78]", "assaySystem": "S. aureus ATCC 13709", "discreteLabel": "n"}
{"compound": "CNC(CC(C)C)C(=O)NC1C(=O)NC(CC(N)=O)C(=O)NC2C(=O)NC3C(=O)NC(C(=O)NC(C(=O)OCC(=O)NCCN)c4cc(O)cc(O)c4-c4cc3ccc4O)C(OC3CC(C)(N)C(O)C(C)O3)c3ccc(c(Cl)c3)Oc3cc2cc(c3OC2OC(CO)C(O)C(O)C2OC2CC(C)(NCc3ccc(-c4ccc(Cl)cc4)cc3)C(O)C(C)O2)Oc2ccc(cc2Cl)C1O (centres unmarked) [Compound 90a]", "assaySystem": "S. aureus ATCC 13709", "discreteLabel": "y"}
{"compound": "CNC(CC(C)C)C(=O)NC1C(=O)NC(CC(N)=O)C(=O)NC2C(=O)NC3C(=O)NC(C(=O)NC(C(=O)SCC(=O)NCCCN)c4cc(O)cc(O)c4-c4cc3ccc4O)C(OC3CC(C)(N)C(O)C(C)O3)c3ccc(c(Cl)c3)Oc3cc2cc(c3OC2OC(CO)C(O)C(O)C2OC2CC(C)(NCc3ccc(-c4ccc(Cl)cc4)cc3)C(O)C(C)O2)Oc2ccc(cc2Cl)C1O (centres unmarked) [Compound 93]", "assaySystem": "S. aureus ATCC 13709", "discreteLabel": "y"}
{"compound": "CNC(CC(C)C)C(=O)NC1C(=O)NC(CC(N)=O)C(=O)NC2C(=O)NC3C(=O)NC(C(=O)NC(C(=O)OCC(=O)NCCCN)c4cc(O)cc(O)c4-c4cc3ccc4O)C(OC3CC(C)(N)C(O)C(C)O3)c3ccc(c(Cl)c3)Oc3cc2cc(c3OC2OC(CO)C(O)C(O)C2OC2CC(C)(NCc3ccc(-c4ccc(Cl)cc4)cc3)C(O)C(C)O2)Oc2ccc(cc2Cl)C1O (centres unmarked) [Compound 90b]", "assaySystem": "S. aureus ATCC 13709", "discreteLabel": "y"}
{"compound": "CC(C)CC(C(=O)NC1C(=O)NC(CC(N)=O)C(=O)NC2C(=O)NC3C(=O)NC(C(=O)NC(C(=O)O)c4cc(O)cc(O)c4-c4cc3ccc4O)C(OC3CC(C)(N)C(O)C(C)O3)c3ccc(c(Cl)c3)Oc3cc2cc(c3OC2OC(CO)C(O)C(O)C2OC2CC(C)(NCc3ccc(-c4ccc(Cl)cc4)cc3)C(O)C(C)O2)Oc2ccc(cc2Cl)C1O)N(C)C(=O)OCOC(=O)C(N)CCCCN (centres unmarked) [Compound 44]", "assaySystem": "S. aureus ATCC 13709", "discreteLabel": "n"}
